MEASURED ON: Progesterone receptor (Homo sapiens) (UniProt P06401)
Sequence (P06401 whole entry, looked up): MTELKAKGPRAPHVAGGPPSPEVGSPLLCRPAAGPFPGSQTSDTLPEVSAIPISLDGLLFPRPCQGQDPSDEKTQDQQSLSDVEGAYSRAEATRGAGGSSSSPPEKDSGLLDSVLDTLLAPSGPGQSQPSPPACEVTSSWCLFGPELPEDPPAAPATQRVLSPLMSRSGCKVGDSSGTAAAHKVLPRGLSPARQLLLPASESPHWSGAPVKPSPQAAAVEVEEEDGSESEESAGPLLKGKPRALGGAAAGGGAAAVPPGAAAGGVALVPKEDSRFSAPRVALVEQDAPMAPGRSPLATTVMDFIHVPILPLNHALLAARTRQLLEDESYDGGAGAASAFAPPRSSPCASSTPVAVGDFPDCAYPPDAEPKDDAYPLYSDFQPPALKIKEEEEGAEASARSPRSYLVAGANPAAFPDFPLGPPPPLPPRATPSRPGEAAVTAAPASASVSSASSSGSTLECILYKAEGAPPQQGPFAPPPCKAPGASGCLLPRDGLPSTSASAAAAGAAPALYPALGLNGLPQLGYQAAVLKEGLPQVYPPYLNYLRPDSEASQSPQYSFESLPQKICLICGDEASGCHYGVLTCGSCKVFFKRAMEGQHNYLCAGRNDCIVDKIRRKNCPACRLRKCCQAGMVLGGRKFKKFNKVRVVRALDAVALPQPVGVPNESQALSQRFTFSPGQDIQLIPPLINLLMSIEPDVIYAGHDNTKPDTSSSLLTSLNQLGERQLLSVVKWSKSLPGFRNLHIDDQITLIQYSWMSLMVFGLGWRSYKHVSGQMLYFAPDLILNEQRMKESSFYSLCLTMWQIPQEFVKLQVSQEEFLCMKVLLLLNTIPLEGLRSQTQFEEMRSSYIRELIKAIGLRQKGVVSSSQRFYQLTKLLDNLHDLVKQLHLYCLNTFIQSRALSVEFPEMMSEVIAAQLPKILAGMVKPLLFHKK
METHOD NOTES: qHTS assay to identify small molecule antagonists of the progesterone receptor (PR) signaling pathway (AID 1346795)
MEASUREMENT CONDITIONS: PR-UAS-bla HEK293T, beta-lactamase FRET ratio, 16 h; series mostly up to 92.4 µM
Inconclusive results are not listed. The source made the active and inactive calls. Calls follow the shape of the dose curve; as a rule, active = well fitted inhibition curve with a large enough effect in the signal ratio in the repeat runs (not every such curve was filed as active); inconclusive = weak or mixed curves; inactive = flat fitted curve, though single readings scatter; the % refers to the signal ratio.
The categories you may choose from are active, inactive

Reference set, count: 3
>  <MOLECULE>
NS(=O)(=O)O

>  <QUALITATIVE LABEL>
inactive

$$$$
>  <MOLECULE>
CCCCNC(=O)NS(=O)(=O)c1ccc(C)cc1

>  <QUALITATIVE LABEL>
inactive

$$$$
>  <MOLECULE>
C1CCC(C(CC2CCCCN2)C2CCCCC2)CC1 (stereo not drawn)

>  <QUALITATIVE LABEL>
active

$$$$

**Q:** Status in this test for CCN(CC)C(=O)c1cccc(C)c1 ?
**A:** inactive

**Q:** Give the logged outcome of this assay for the following molecule: Cc1cn([C@H]2C=C[C@@H](CO)O2)c(=O)[nH]c1=O
**A:** inactive

**Q:** Give the logged outcome of this assay for the following molecule: COc1ccc2c(c1)c(CC(=O)O)c(C)n2C(=O)c1ccc(Cl)cc1
**A:** inactive

**Q:** What was the test verdict on Cc1ccc(S(=O)(=O)O)cc1 ?
**A:** inactive

**Q:** Could you please tell me the result logged for CN(C)CCOC(c1ccccc1)c1ccccc1 in this assay?
**A:** inactive

**Q:** Status in this test for CC(=O)CC(c1ccccc1)c1c(O)c2ccccc2oc1=O (stereo not drawn) ?
**A:** inactive

**Q:** Please let me know the test result on file for CS(=O)(=O)OCCCCOS(C)(=O)=O .
**A:** inactive

**Q:** Outcome? CCCCCCCCCCCCCCCC[N+](C)(C)Cc1ccccc1
**A:** inactive

**Q:** What outcome does the record of this test show for COc1ccc(CN(CCN(C)C)c2ccccn2)cc1 ?
**A:** inactive

**Q:** Assay outcome for O=S1(=O)OC(c2ccc(O)cc2)(c2ccc(O)cc2)c2ccccc21 : what was it?
**A:** inactive

---

METHOD NOTES: qHTS RealTime-Glo MT Cell Viability Assay in HepG2 cells - 16 hour (AID 1224885); also: nearly all actives have a fitted effect of over 50% in size
MEASUREMENT CONDITIONS: RealTime-Glo luminescence; series mostly up to 76.8 µM
Records with an inconclusive call do not appear. The source made the active and inactive calls. Calls come from the whole dose curve; as a rule, active = well fitted cell-killing curve with a large enough effect in the repeat runs; inconclusive = weak or mixed curves; inactive = flat fitted curve, though single readings scatter.
Thanks in advance; please answer with one of these: active, inactive

>  <COMPOUND>
C=C(C)C(=O)OCC(C)O (stereo not given)

>  <QUALITATIVE LABEL>
inactive

$$$$
>  <COMPOUND>
Cc1ncc([N+](=O)[O-])n1C

>  <QUALITATIVE LABEL>
inactive

$$$$
>  <COMPOUND>
CCCCCCc1ccc(O)cc1O

>  <QUALITATIVE LABEL>
inactive

$$$$
>  <COMPOUND>
Oc1ccccc1

>  <QUALITATIVE LABEL>
inactive

$$$$
>  <COMPOUND>
NC(CO)(CO)CO

>  <QUALITATIVE LABEL>
inactive

$$$$
>  <COMPOUND>
Cc1cc(C)nc(NS(=O)(=O)c2ccc(N)cc2)n1

>  <QUALITATIVE LABEL>
inactive

$$$$
>  <COMPOUND>
CC/C(=C(\c1ccccc1)c1ccc(OCCN(C)C)cc1)c1ccccc1

>  <QUALITATIVE LABEL>
active

$$$$
>  <COMPOUND>
CN(C)C(=O)Nc1ccc(Cl)c(Cl)c1

>  <QUALITATIVE LABEL>
inactive

$$$$

From here, focus on the item given below.
**Q:** Please share the test call associated with O=C(O)CC(O)C(=O)O (stereo not given) .
**A:** inactive
